molecular target: FLAG tagged human Ang2 (Alexis Biochemicals) (human) (UniProt O15123); assay: competition ELISA, periplasmic extract, FLAG-hAng2 on hTie2/Fc
Sequence (O15123 19-496): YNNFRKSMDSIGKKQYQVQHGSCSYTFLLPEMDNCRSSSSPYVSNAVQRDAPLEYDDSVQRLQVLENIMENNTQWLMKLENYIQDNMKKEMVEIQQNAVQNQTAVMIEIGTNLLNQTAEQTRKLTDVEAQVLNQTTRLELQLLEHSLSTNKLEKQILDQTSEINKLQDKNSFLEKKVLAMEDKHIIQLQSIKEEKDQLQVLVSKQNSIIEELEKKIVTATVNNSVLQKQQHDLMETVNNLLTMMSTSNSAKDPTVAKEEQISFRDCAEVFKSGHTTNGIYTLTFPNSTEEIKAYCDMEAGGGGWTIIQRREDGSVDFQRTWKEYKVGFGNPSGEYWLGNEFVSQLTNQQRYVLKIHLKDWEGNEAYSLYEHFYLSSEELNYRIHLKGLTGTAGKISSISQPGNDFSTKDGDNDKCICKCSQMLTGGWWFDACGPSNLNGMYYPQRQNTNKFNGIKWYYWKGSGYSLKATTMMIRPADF
Measurement Label: % inh (%)
Write the answer as a number in %, unit excluded.

- Binder: "VHH 15H04 (VHH, not shown: small tags and cut ends) VHH: EVQLVESGGGLVQAGGSLGLSCAASERTLPSYVMGWFRQAPGKELEFVAGISWSSGRTYYTDSVKGRFTISRDAAENTWYLQMNSLKPEDTAVYYCASNSVSEPTLHTWQYEASYDYWGQGTQVTVSS"
  Experimental Result: 82
- Binder: "VHH 25G04 (VHH, not shown: small tags and cut ends) VHH: EVQLVESGGGLVQPGGSLRLSCAASGFTFGSYDMSWVRQAPGKGPEWVSAINSRGGSTYYADSVKGRFTISRDNAKNTLYLQMNSLKPEDTAVYYCATDPYSLSYYGYPLYDYWGQGTQVTVSS"
  Experimental Result: 87
- Binder: "VHH 8A11 (VHH, not shown: small tags and cut ends) VHH: EVQLVESGGGLVQAGGSLRLSCAASGRTFSSYAMGWFRQAPGKELEFVTAVSWSGGSTYYADSVKGRFTISRDSAKNTVYLQMNSLKPEDTAVYYCAAQSTIVEVTTLEAYDYWGQGTQVTVSS"
  Experimental Result: 67

Now consider the entry below.
Sample VHH 24B05 (VHH, not shown: small tags and cut ends) VHH: EVQLVESGGGLVQPGGSLRLSCAASGFTLDYYAIGWFRQAPGKEWEGVSCISSSDGSTYYADSVKGRFTISRDNAKNTVYLQMNSLKPEDTAVYYCATDSIVCGSYYGMDYWGKGTQVTVSS — what was its % inh?
102
